Molecular target: human orexin-2 receptor (Homo sapiens (Human), UniProt O43614)
Sequence (O43614 whole entry): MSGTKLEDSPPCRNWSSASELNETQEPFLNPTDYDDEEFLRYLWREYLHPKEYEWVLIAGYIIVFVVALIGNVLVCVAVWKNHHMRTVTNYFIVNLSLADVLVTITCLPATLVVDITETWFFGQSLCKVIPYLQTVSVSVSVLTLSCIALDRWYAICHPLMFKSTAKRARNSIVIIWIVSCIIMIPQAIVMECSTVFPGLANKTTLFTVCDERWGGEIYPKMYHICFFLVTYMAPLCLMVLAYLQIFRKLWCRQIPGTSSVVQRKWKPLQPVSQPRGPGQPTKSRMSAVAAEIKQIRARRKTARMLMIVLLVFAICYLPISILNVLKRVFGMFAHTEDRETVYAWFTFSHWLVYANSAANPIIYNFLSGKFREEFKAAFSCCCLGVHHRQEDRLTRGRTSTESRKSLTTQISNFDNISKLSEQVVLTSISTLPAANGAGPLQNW
Assay: In vitro assay: intracellular calcium measurements (FLIPR), antagonistic activity
Format: cell-based
Conditions: CHO cells expressing human orexin-2 receptor, orexin-A agonist, geometric mean, read-out: IC50 Ox2
Method: In Vitro Assay: Intracellular Calcium Measurements: […] Within the Fluorescent Imaging Plate Reader (FLIPR Tetra, Molecular Devices), antagonists are added to the plate in a volume of 10 μl/well, incubated for 120 min and finally 10 μl/well of agonist is added. […] The calculated IC50 values may fluctuate depending on the daily cellular assay performance. […]
reported_property: IC50 (µM)

INSERT INTO results (query_smiles, reported_property, unit, data_value) VALUES
  ('COc1ccc2nc([C@@H]3CCCN3C(=O)c3nc(C)sc3-c3ccc(C)cc3)[nH]c2c1', 'IC50', 'µM', 0.052),
  ('Cc1ccc(-c2nc(C(=O)N3CCC[C@@]3(C)c3nc4c(C)c(Cl)ccc4[nH]3)c(-c3ccc(F)cc3)s2)c(F)c1', 'IC50', 'µM', 1.19),
  ('C=C1C[C@@H](c2nc3cc(Cl)c(C(F)(F)F)cc3[nH]2)N(C(=O)c2ccccc2-n2nccn2)C1', 'IC50', 'µM', 0.01),
  ('Cc1nc(C(=O)N2CCC[C@@]2(C)c2nc3c(C)c(C)c(Br)cc3[nH]2)c(-c2ccccc2C)s1', 'IC50', 'µM', 0.006),
  ('CSc1cccc2nc([C@@H]3CCCN3C(=O)c3nc(C)sc3-c3ccc(F)c(F)c3)[nH]c12', 'IC50', 'µM', 0.084),
  ('CSc1cccc2nc([C@@H]3CCCN3C(=O)c3cncnc3-c3ccc(C)c(C)c3)[nH]c12', 'IC50', 'µM', 0.036),
  ('CSc1ccc2[nH]c([C@@H]3CCCN3C(=O)c3nc(C)ccc3-n3nccn3)nc2c1', 'IC50', 'µM', 0.05),
  ('Cc1nc(C(=O)N2CCC[C@@]2(C)c2nc3ccc(F)c(F)c3[nH]2)c(-c2ccc(F)cc2)s1', 'IC50', 'µM', 0.284);
